System: K-562 leukemia
Assay: NCI tumour cell line growth inhibition, 48 h; in the data active = GI50 below about 0.43 µM; inactive = the rest
Parameter call: string, one of label 1 (active), label 0 (inactive)

Worked examples, 2 compounds total:
{"columns": ["Smiles Text", "Experimental System", "Label"],
 "data": [
  ["CNc1nc(-c2ccc3c(N)n[nH]c3c2)cc(N2C[C@@H](C(=O)NC3CCCCC3)CC[C@H]2C)n1", "K-562 leukemia", "label 0"],
  ["CCOC(=O)N(O)c1ccc(/C=C/c2ccccc2)cc1", "K-562 leukemia", "label 0"]
]}

Q: Given `COC(=O)c1cc(C)[nH]c2c(C)cc3nc4ccccc4c3c12` , state the outcome it received in this test.
A: label 0
